Data provenance: patent US5565484A

assay: Solubility tests in water of SR 33805 salts; assay type: physicochemical; conditions: (2) water of pH = 3.6
observation.type: solubility (µg/mL)
# output: bare number, implied unit µg/mL

Previously resolved entries follow.
INSERT INTO assay_data (structure_string, result_unit, reported_measurement) VALUES
  ('COc1ccc(CCN(C)CCCOc2ccc(S(=O)(=O)c3c(C(C)C)c4ccccc4n3C)cc2)cc1OC', 'µg/mL', 100),
  ('COc1ccc(CCN(C)CCCOc2ccc(S(=O)(=O)c3c(C(C)C)c4ccccc4n3C)cc2)cc1OC.CS(=O)(=O)O', 'µg/mL', 79900);

Please turn your attention to the following entry.
Exercise: Quick one: give measured solubility for `COc1ccc(CCN(C)CCCOc2ccc(S(=O)(=O)c3c(C(C)C)c4ccccc4n3C)cc2)cc1OC.O=C(O)C(=O)O`
Key: 190

###

assay: Solubility tests in water of SR 33805 salts; type: physicochemical; conditions: water, (1) water, 25° C., stirring 72 hours; read-out: solubility in water at 25° C. after stirring for 72 hours
observation.type: solubility thermodynamic at 72 h
Please report the result as a number followed by the unit.

INSERT INTO measurements (molecule, observation_type, reported_measurement) VALUES
  ('COc1ccc(CCN(C)CCCOc2ccc(S(=O)(=O)c3c(C(C)C)c4ccccc4n3C)cc2)cc1OC.CS(=O)(=O)O [SR 33805 C]', 'solubility thermodynamic at 72 h', '67500 µg/mL'),
  ('COc1ccc(CCN(C)CCCOc2ccc(S(=O)(=O)c3c(C(C)C)c4ccccc4n3C)cc2)cc1OC [SR 33805 B]', 'solubility thermodynamic at 72 h', '150 µg/mL');

Please turn your attention to the following entry.
Exercise: Quick one: give measured solubility thermodynamic at 72 h for COc1ccc(CCN(C)CCCOc2ccc(S(=O)(=O)c3c(C(C)C)c4ccccc4n3C)cc2)cc1OC.O=C(O)C(=O)O [SR 33805 A]
Key: 70 µg/mL
